# Test system: HCV 1a-H77 subgenomic replicon
# test description: microbe, parasite or virus in culture
# Format: cell-based, HCV genotype 1a
# assay setup: Hepatitis C virus, stable replicon, strain 1a H77, 5% FBS, no human plasma; read-out: 1a H77 5% FBS EC50
readout label: EC50 (nM)

                                    molecule  measured
 0  CCOC(=O)CCCN(c1cc2oc(-c3ccc(F)cc3)c(C3=NOCCN3)c2cc1C1CC1)S(C)(=O)=O [Example 121]      38.7
 1  CCN(CC)CCCN(c1cc2oc(-c3ccc(F)cc3)c(C3=NOCCN3)c2cc1C1CC1)S(C)(=O)=O [Example 131]       122
 2  CS(=O)(=O)N(CCCC(=O)O)c1cc2oc(-c3ccc(F)cc3)c(C3=NOCCN3)c2cc1C1CC1 [Example 135]       969
 3  COc1ccc(CN(c2cc3oc(-c4ccc(F)cc4)c(-c4nc(Cl)c[nH]4)c3cc2C2CC2)S(C)(=O)=O)cc1 [Example 159]       990
 4  CS(=O)(=O)N(CCCCC(=O)O)c1cc2oc(-c3ccc(F)cc3)c(-c3ncc[nH]3)c2cc1C1CC1 [Example 92]      21.4
 5  COc1ccc(CN(c2cc3oc(-c4ccc(F)cc4)c(C4=NOCC(=O)N4)c3cc2C2CC2)S(C)(=O)=O)cc1 [Example 160]      2160
 6  CS(=O)(=O)N(CCCF)c1cc2oc(-c3ccc(F)cc3)c(-c3ncc[nH]3)c2cc1C1CC1 [Example 85]      21.8
 7  CS(=O)(=O)N(CCC(O)CO)c1cc2oc(-c3ccc(F)cc3)c(-c3ncc[nH]3)c2cc1C1CC1 (stereo not drawn) [Example 110]      14.3
 8  CCCN(c1cc2oc(-c3ccc(F)cc3)c(-c3ncc[nH]3)c2cc1C1CC1)S(C)(=O)=O [Example 64]      24.3
 9  CS(=O)(=O)N(CCCc1nnn[nH]1)c1cc2oc(-c3ccc(F)cc3)c(-c3ncc[nH]3)c2cc1C1CC1 [Example 174]       320
10  CS(=O)(=O)N(CCCS(N)(=O)=O)c1cc2oc(-c3ccc(F)cc3)c(-c3ncc[nH]3)c2cc1C1CC1 [Example 80]      12.1
11  COc1ccc(-c2nn3ccc(-c4cc(C(=O)NC5(c6ccccc6)CC5)ccc4C)cc3c2C2=NOCCN2)cc1 [Example 19]      33.2
12  CS(=O)(=O)N(CCC1CCS(=O)(=O)C1)c1cc2oc(-c3ccc(F)cc3)c(C3=NOCCN3)c2cc1C1CC1 (stereo not drawn) [Example 123]      10.9
13  CC(C)CCN(c1cc2oc(-c3ccc(F)cc3)c(C3=NOCN3)c2cc1C1CC1)S(C)(=O)=O [Example 156]      41.8
14  CNS(=O)(=O)CCCN(c1cc2oc(-c3ccc(F)cc3)c(-c3ncc[nH]3)c2cc1C1CC1)S(C)(=O)=O [Example 86]      12.3

----------
# tgt: HCV NS5B polymerase 1a-H77 (Hepatitis C virus genotype 1a, UniProt P27958)
# Construct: six-histidine tag; made in house; host or cells: E. coli
# Sequence (P27958 2421-2990): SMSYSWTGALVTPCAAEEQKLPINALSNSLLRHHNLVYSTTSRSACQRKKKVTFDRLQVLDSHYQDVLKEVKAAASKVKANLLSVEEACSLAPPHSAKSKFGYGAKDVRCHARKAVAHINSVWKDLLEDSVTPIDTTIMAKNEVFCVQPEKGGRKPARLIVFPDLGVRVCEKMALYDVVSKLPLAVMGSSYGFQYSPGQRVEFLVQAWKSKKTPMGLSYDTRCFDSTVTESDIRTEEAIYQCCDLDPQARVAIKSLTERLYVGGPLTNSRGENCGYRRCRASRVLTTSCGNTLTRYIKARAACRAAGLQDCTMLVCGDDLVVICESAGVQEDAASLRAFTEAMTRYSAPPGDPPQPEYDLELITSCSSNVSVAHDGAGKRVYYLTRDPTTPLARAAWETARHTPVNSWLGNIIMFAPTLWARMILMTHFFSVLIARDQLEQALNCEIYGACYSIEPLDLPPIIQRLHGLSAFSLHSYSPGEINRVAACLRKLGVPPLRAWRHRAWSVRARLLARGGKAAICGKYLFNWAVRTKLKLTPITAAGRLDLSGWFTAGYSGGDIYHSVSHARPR
# test description: biochemical
# Design: species or system HCV genotype 1a
# assay setup: enzyme, strain 1a H77; read-out: HCV Polymerase Strain 1a H77 IC50
Mark criterion met only for IC50 values smaller than 5 nM; exact matches and larger values are criterion not met.

In [3]: df
Out[3]:
                                    molecule                                       tgt         class_name
 0  CC(O)CN(c1cc2oc(-c3ccc(F)cc3)c(-c3ncc[nH]3)c2cc1C1CC1)S(C)(=O)=O (stereo not shown)  HCV NS5B polymerase 1a-H77 (Hepatitis C virus genotype 1a, UniProt P27958)  criterion not met
 1  CC(C)(O)CCCN(c1cc2oc(-c3ccc(F)cc3)c(-c3ncc[nH]3)c2cc1C1CC1)S(C)(=O)=O  HCV NS5B polymerase 1a-H77 (Hepatitis C virus genotype 1a, UniProt P27958)      criterion met
 2  CS(=O)(=O)N(CCCCO)c1cc2oc(-c3ccc(F)cc3)c(-c3ncc[nH]3)c2cc1C1CC1  HCV NS5B polymerase 1a-H77 (Hepatitis C virus genotype 1a, UniProt P27958)      criterion met
 3  C=C(c1ccccc1)c1ccc(-c2oc3cc(N(CCC(C)C)S(C)(=O)=O)c(C4CC4)cc3c2-c2ncc[nH]2)cc1  HCV NS5B polymerase 1a-H77 (Hepatitis C virus genotype 1a, UniProt P27958)  criterion not met
 4  CS(=O)(=O)CCCCN(c1cc2oc(-c3ccc(F)cc3)c(C3=NOCN3)c2cc1C1CC1)S(C)(=O)=O  HCV NS5B polymerase 1a-H77 (Hepatitis C virus genotype 1a, UniProt P27958)      criterion met
 5  CCS(=O)(=O)CCN(c1cc2oc(-c3ccc(F)cc3)c(-c3ncc[nH]3)c2cc1C1CC1)S(C)(=O)=O  HCV NS5B polymerase 1a-H77 (Hepatitis C virus genotype 1a, UniProt P27958)  criterion not met
 6  Cn1ccc2cc(-c3ncc(CN(c4ccc5c(-c6ncc[nH]6)c(-c6ccccc6)oc5c4)S(C)(=O)=O)s3)ccc21  HCV NS5B polymerase 1a-H77 (Hepatitis C virus genotype 1a, UniProt P27958)  criterion not met
 7  CS(=O)(=O)N(CCO)c1cc2oc(-c3ccc(F)cc3)c(C3=NOCCN3)c2cc1C1CC1  HCV NS5B polymerase 1a-H77 (Hepatitis C virus genotype 1a, UniProt P27958)  criterion not met
 8  CS(=O)(=O)N(CC1CCCCC1)c1cc2oc(-c3ccc(F)cc3)c(-c3ncc[nH]3)c2cc1C1CC1  HCV NS5B polymerase 1a-H77 (Hepatitis C virus genotype 1a, UniProt P27958)  criterion not met
 9  CS(=O)(=O)N(CC1CCNC1)c1cc2oc(-c3ccc(F)cc3)c(-c3ncc[nH]3)c2cc1C1CC1 (stereo not shown)  HCV NS5B polymerase 1a-H77 (Hepatitis C virus genotype 1a, UniProt P27958)  criterion not met
10  CS(=O)(=O)N(CCCC(=O)N1CCOCC1)c1cc2oc(-c3ccc(F)cc3)c(-c3ncc[nH]3)c2cc1C1CC1  HCV NS5B polymerase 1a-H77 (Hepatitis C virus genotype 1a, UniProt P27958)  criterion not met
11  CS(=O)(=O)N(CCCC(=O)O)c1cc2oc(-c3ccc(F)cc3)c(C3=NOCCN3)c2cc1C1CC1  HCV NS5B polymerase 1a-H77 (Hepatitis C virus genotype 1a, UniProt P27958)      criterion met
12  Cc1c[nH]c(-c2c(-c3ccc(F)cc3)oc3cc(N(CCCCO)S(C)(=O)=O)c(C4CC4)cc23)n1  HCV NS5B polymerase 1a-H77 (Hepatitis C virus genotype 1a, UniProt P27958)  criterion not met
13  CC(C)CCN(c1cc2oc(-c3ccc(F)cc3)c(-c3nc(C(F)(F)F)c[nH]3)c2cc1C1CC1)S(C)(=O)=O  HCV NS5B polymerase 1a-H77 (Hepatitis C virus genotype 1a, UniProt P27958)  criterion not met

----------
# tgt: HCV NS5B polymerase 1a-H77 (Hepatitis C virus genotype 1a)
# Construct: six-histidine tag; made in house; host or cells: E. coli
# test description: biochemical
# Parameters: species or system HCV genotype 1a
# assay setup: enzyme, strain 1a H77; read-out: HCV Polymerase Strain 1a H77 IC50
pIC50: −log10 of the molar value.
readout label: pIC50

                                    compound  measured
 0  CS(=O)(=O)N(CCCS(=O)(=O)N1CCOCC1)c1cc2oc(-c3ccc(F)cc3)c(-c3ncc[nH]3)c2cc1C1CC1      8.26
 1  CS(=O)(=O)N(CCCO)c1cc2oc(-c3ccc(F)cc3)c(-c3ncc[nH]3)c2cc1C1CC1      8.16
 2  CS(=O)(=O)Nc1cc2oc(-c3ccc(F)cc3)c(-c3nc(Br)c(Br)[nH]3)c2cc1C1CC1      5.82
 3  CS(=O)(=O)N(CCCC(=O)O)c1cc2oc(-c3ccc(F)cc3)c(C3=NOCN3)c2cc1C1CC1      8.30
 4  CC(=O)CCCN(c1cc2oc(-c3ccc(F)cc3)c(-c3ncc[nH]3)c2cc1C1CC1)S(C)(=O)=O      8.46
 5  CC(C)CCN(c1cc2oc(-c3ccc(F)cc3)c(C3=NOC(C)N3)c2cc1C1CC1)S(C)(=O)=O (stereo not shown)      8.07
 6  CS(=O)(=O)N(CCCC(F)(F)F)c1cc2oc(-c3ccc(F)cc3)c(-c3ncc[nH]3)c2cc1C1CC1      8.30
 7  CS(=O)(=O)N(CCc1ccccc1)c1cc2oc(-c3ccc(F)cc3)c(-c3ncc[nH]3)c2cc1C1CC1      8.31
 8  CC(C)(C)Oc1ncc(-c2ncc(CN(c3ccc4c(-c5ncc[nH]5)c(-c5ccccc5)oc4c3)S(C)(=O)=O)s2)c(OC(C)(C)C)n1      6.67
 9  CS(=O)(=O)N(CC1CCCO1)c1cc2oc(-c3ccc(F)cc3)c(-c3ncc[nH]3)c2cc1C1CC1 (stereo not shown)      8.19
10  CC(=O)OCCCCCN(c1cc2oc(-c3ccc(F)cc3)c(-c3ncc[nH]3)c2cc1C1CC1)S(C)(=O)=O      8.35
11  CS(=O)(=O)N(Cc1cnc(-c2c[nH]c(=O)[nH]c2=O)s1)c1ccc2c(-c3ncc[nH]3)c(-c3ccccc3)oc2c1      8.52
12  CS(=O)(=O)N(CC(O)CO)c1cc2oc(-c3ccc(F)cc3)c(-c3ncc[nH]3)c2cc1C1CC1 (stereo not shown)      8.30
13  CC[S+]([O-])CCN(c1cc2oc(-c3ccc(F)cc3)c(C3=NOCCN3)c2cc1C1CC1)S(C)(=O)=O (stereo not shown)      7.82
14  CC1NC(c2c(-c3ccc(F)cc3)oc3cc(N(CCS(C)(=O)=O)S(C)(=O)=O)c(C4CC4)cc23)=NO1 (stereo not shown)      8.26
15  Cn1cnc2ccc(-c3ncc(CN(c4ccc5c(-c6ncc[nH]6)c(-c6ccccc6)oc5c4)S(C)(=O)=O)s3)cc21      8.30
16  CS(=O)(=O)N(CCCc1cc(O)no1)c1cc2oc(-c3ccc(F)cc3)c(-c3ncc[nH]3)c2cc1C1CC1      8.52
17  CC(C)=CCCN(c1cc2oc(-c3ccc(F)cc3)c(-c3ncc[nH]3)c2cc1C1CC1)S(C)(=O)=O      8.23
18  CS(=O)(=O)N(CCCCF)c1cc2oc(-c3ccc(F)cc3)c(-c3ncc[nH]3)c2cc1C1CC1      8.26
19  CCCC/C=C/c1ccc(-c2oc3cc(N(CCCCS(C)(=O)=O)S(C)(=O)=O)c(C4CC4)cc3c2-c2ncc[nH]2)cc1      8.31
20  CC(C)(O)C(O)CCN(c1cc2oc(-c3ccc(F)cc3)c(C3=NOCN3)c2cc1C1CC1)S(C)(=O)=O (stereo not shown)      8.31
21  CC(C)(O)C(O)CN(c1cc2oc(-c3ccc(F)cc3)c(-c3ncc[nH]3)c2cc1C1CC1)S(C)(=O)=O (stereo not shown)      8.03
22  CS(=O)(=O)N(CC1CC1(F)F)c1cc2oc(-c3ccc(F)cc3)c(-c3ncc[nH]3)c2cc1C1CC1 (stereo not shown)      8.30
23  CC(C)(O)C(O)CCN(c1cc2oc(-c3ccc(F)cc3)c(-c3ncc[nH]3)c2cc1C1CC1)S(C)(=O)=O (stereo not shown)      8.46
24  CC(C)=CCN(c1cc2oc(-c3ccc(F)cc3)c(-c3ncc[nH]3)c2cc1C1CC1)S(C)(=O)=O      8.35
25  CS(=O)(=O)N(CC(N)=O)c1cc2oc(-c3ccc(F)cc3)c(-c3ncc[nH]3)c2cc1C1CC1      8.10
26  CS(=O)(=O)N(CCCN)c1cc2oc(-c3ccc(F)cc3)c(-c3ncc[nH]3)c2cc1C1CC1      7.97
27  CS(=O)(=O)N(CCCN1CCOCC1)c1cc2oc(-c3ccc(F)cc3)c(-c3ncc[nH]3)c2cc1C1CC1      7.95
